System: A498 renal
Assay: NCI tumour cell line growth inhibition, 48 h
Peptide text beside a SMILES is read from it. * marks the point of attachment. Boc = CC(C)(C)OC(=O)*
This section presents compounds with their documented TGI values.

Reference set (2 entries):
Input line: Query for A498 renal: what TGI does the record show for COc1cccc(N2N=C3c4ccccc4-n4c(nc5ccccc54)C3C2N)c1 (stereo unspecified) ?
Output line: > 100 µM

Input line: Query for A498 renal: what TGI does the record show for CC(C)[Si]1(C(C)C)OCC2OC(n3cnc4c(N)ncnc43)C(N)C2O[Si](C(C)C)(C(C)C)O1 (stereo unspecified) ?
Output line: 45.5 µM

Others:
Input line: Query for A498 renal: what TGI does the record show for CC1=CC(c2ccccc2)n2c(nc3cc4ccccc4cc32)N1 (stereo unspecified) ?
Output line: > 100 µM

Input line: Query for A498 renal: what TGI does the record show for `N#CC(=C=[N-])[n+]1ccc(Cl)cc1` ?
Output line: 86.6 µM

Input line: Query for A498 renal: what TGI does the record show for `COc1ccc(N=C2NN=C(c3c[nH]c4ccccc34)CS2)cc1OC` ?
Output line: > 61.3 µM

Input line: Query for A498 renal: what TGI does the record show for `Cc1ccc(C2=Nn3c(nc4sc(-c5ccccc5)cc4c3=O)SC2)cc1` ?
Output line: > 100 µM

Input line: Query for A498 renal: what TGI does the record show for `O=C1c2cccc3cccc(c23)C(=O)N1CCCN1CCN(CCCN2C(=O)c3cccc4cccc(c34)C2=O)CC1` ?
Output line: > 100 µM

Input line: Query for A498 renal: what TGI does the record show for `Cc1c(-c2coc(-c3ccc(Cl)cc3)n2)c(=O)n(-c2ccccc2)n1C` ?
Output line: > 100 µM

Input line: Query for A498 renal: what TGI does the record show for CSCCC(NC(=O)C(CC(C)C)NC(=O)CNC(=O)OC(C)(C)C)C(=O)N(C)C (stereo not drawn) (Boc-Gly-Leu-Met-NMe2; configuration not given here) ?
Output line: > 100 µM

Input line: Query for A498 renal: what TGI does the record show for `C/C(=N\NC(=S)N1CCC(C2CCN(C(=S)N/N=C(\C)c3ccccn3)CC2)CC1)c1ccccn1` ?
Output line: > 100 µM

Input line: Query for A498 renal: what TGI does the record show for `BrCC[P+](c1ccccc1)(c1ccccc1)c1ccccc1` ?
Output line: 41.3 µM

----------
Tested on: SW-620 colon
Experiment: NCI tumour cell line growth inhibition, 48 h
reported.metric: TGI

Reference set (3 entries):
Input line: Query for SW-620 colon: what TGI does the record show for `C[C@]12CC[C@@H]3c4ccc(O)cc4CC[C@H]3[C@@H]1CC[C@@H]2NS(=O)(=O)c1ccc(-c2ccccc2)cc1` ?
Output line: > 100 µM

Input line: Query for SW-620 colon: what TGI does the record show for CSc1nc(Br)nc2c1ncn2C1CC(Oc2ccc(C)cc2)C(COc2ccc(C)cc2)O1 (centres undefined) ?
Output line: > 100 µM

Input line: Query for SW-620 colon: what TGI does the record show for `N#Cc1ccc(N2Cc3cc(Cl)ccc3OC3=C2C(=O)N(Cc2ccccc2)C3=O)cc1` ?
Output line: 0.971 µM

In the following, a different compound is considered.
Input line: Query for SW-620 colon: what TGI does the record show for `Fc1nc(F)nc(-c2c3ccccc3c3n2CCS3)n1` ?
Output line: > 100 µM

----------
System: EKVX NSCLC
Assay: NCI tumour cell line growth inhibition, 48 h
This section presents compounds with their documented TGI values.
Give the value in µM but do not write µM after it.

Input line: Query for EKVX NSCLC: what TGI does the record show for `Cc1ccc(Nc2nnc3n2S(=O)(=O)c2cc(C)c(Cl)cc2S3)cc1` ?
Output line: 87.4

Input line: Query for EKVX NSCLC: what TGI does the record show for `C=CCOn1c(C=C)nc2c(C)cccc21` ?
Output line: 29.2

In the following, a different compound is considered.
Input line: Query for EKVX NSCLC: what TGI does the record show for `O=C1O/C(=C\c2ccc(O)cc2)C(c2ccc(O)c(Cl)c2)=C1Br` ?
Output line: 40.7

----------
Test system: NCI-H226 lung
Experiment: NCI tumour cell line growth inhibition, 48 h
This section presents compounds with their documented GI50 values.

Reference set (3 entries):
Input line: Report GI50 for `C#Cc1cccc(Nc2ncnc3ccc(-c4cncc(NS(C)(=O)=O)c4)cc23)c1` please.
Output line: 2990 nM

Input line: Report GI50 for `C#Cc1ccc(-n2c(/C=C/c3cc(OC)c(OC)c(OC)c3)nc3ncccc3c2=O)cc1` please.
Output line: 12900 nM

Input line: Report GI50 for CC1SC2(CCCCC2)N(NC(=O)c2[nH]c3ccc(F)cc3c2-c2ccccc2)C1=O (centres undefined) please.
Output line: > 100000 nM

Others:
Input line: Report GI50 for `CCCCCCCCCCCCCCCC(=O)N[C@H]1CCc2cc(OC)c(OC)c(OC)c2-c2ccc(SC)c(=O)cc21` please.
Output line: 2630 nM

----------
System: ACHN renal
Assay: NCI tumour cell line growth inhibition, 48 h
reported.metric: TGI

Reference set (7 entries):
Input line: Report TGI for `Cc1cccc(N2CCN(S(=O)(=O)c3ccc(Cl)cc3)C2=N)c1C` please.
Output line: > 100 µM

Input line: Report TGI for `CCCCCCCCCCCCCCCCCC1=NC(C)(C)CN1CCO` please.
Output line: 2.99 µM

Input line: Report TGI for `Cc1[nH]c(=O)nc(N/N=C/c2ccc(O)cc2)c1C(=O)Nc1ccc(Cl)cc1` please.
Output line: > 100 µM

Input line: Report TGI for `Clc1ncc(C(Cl)(Cl)Cl)nc1-c1ccccc1` please.
Output line: 3.19 µM

Input line: Report TGI for `O=C(O)CNC(=O)c1cccc2c(=O)c3ccccc3[nH]c12` please.
Output line: > 100 µM

Input line: Report TGI for C/C=C\C(CC(=O)O)CC(=O)NCCC1CN(S(=O)(=O)C(F)(F)F)c2ccccc21 (stereo not drawn) please.
Output line: > 100 µM

Input line: Report TGI for `CNC(=O)OCC1=C(COC(=O)NC)CN(c2ccccc2)C1` please.
Output line: > 100 µM

In the following, a different compound is considered.
Input line: Report TGI for `C#Cc1cccc(Nc2ncnc3ccc(-c4cncc(NS(C)(=O)=O)c4)cc23)c1` please.
Output line: 49.6 µM

----------
Test system: SK-OV-3 ovarian
Experiment: NCI tumour cell line growth inhibition, 48 h
Where a SMILES comes first, the peptide text is derived from it. The star is where a group is joined. Palmitoyl = CCCCCCCCCCCCCCCC(=O)*
reported.metric: TGI

Reference set (5 entries):
Input line: Report TGI for COc1cc2c(cc1OC)C1Cc3ccccc3CN1CCC2 (stereo not given) please.
Output line: > 100 µM

Input line: Report TGI for `CCCCCCCCCCCCCCCCCC1=NC(C)(C)CN1CCO` please.
Output line: 3.16 µM

Input line: Report TGI for `CCOc1cccnc1/C=N/NC(N)=S` please.
Output line: > 100 µM

Input line: Report TGI for `C=CC(C)(C)n1cc(C2=C(O)C(=O)C(c3cn(C(C)(C)C=C)c4ccccc34)=C(OC(C)=O)C2=O)c2ccccc21` please.
Output line: 2.85 µM

Input line: Report TGI for `O=C(O)c1ccccc1-c1ccccc1C(=O)c1ccccc1` please.
Output line: > 100 µM

Others:
Input line: Report TGI for `O=c1[nH]c(-c2ccccn2)nc2sc3c(c12)CCCCCC3` please.
Output line: > 100 µM

Input line: Report TGI for `CC(C)C[C@H](NC(=O)[C@@H](O)[C@H](N)Cc1ccccc1)C(=O)O` please.
Output line: > 100 µM

Input line: Report TGI for Cc1nn(C(=O)c2ccccc2O)c2c1C(c1ccc(O)cc1)SC(N)=N2 (stereo not given) please.
Output line: > 10 µM

Input line: Report TGI for `CC[C@@]1(OC(=O)CN(C)C)C(=O)OCc2c1cc1n(c2=O)Cc2cc3ccccc3nc2-1` please.
Output line: 2.88 µM

Input line: Report TGI for `COC(=O)c1cc2c3c(c(C(C)=O)c(OC)c2[nH]1)NCC3` please.
Output line: > 50 µM

Input line: Report TGI for `CN1c2ccccc2C(=O)Nc2cnc(Cl)nc21` please.
Output line: > 100 µM

Input line: Report TGI for `CN(C)CCn1c(=O)c2ccc(NCCNCCO)c3c(=O)c4cc(O)ccc4n(c1=O)c23` please.
Output line: 46.7 µM

Input line: Report TGI for `COc1ccc(C[C@H]2COC(=O)[C@@H]2Cc2cc(OC)c(OC)c(OC)c2)cc1OC` please.
Output line: > 100 µM

Input line: Report TGI for `O=C1/C(=C/c2ccccc2)CN(C(=O)OCC(Cl)(Cl)Cl)C/C1=C\c1ccccc1` please.
Output line: 24.6 µM

Input line: Report TGI for `COc1ncnc2c(-c3ccco3)cn(COCc3ccccc3)c12` please.
Output line: > 50 µM

Input line: Report TGI for CCCCCCCCCCCCCCCC(=O)NC(CCCCN)C(=O)NCC(=O)NC(Cc1ccccc1)C(=O)N1CCCC1C(=O)NC(CO)C(=O)NC(Cc1ccc(O)cc1)C(=O)NC(CCCCN)C(=O)NC(CC(C)C)C(=O)NC(CCCN=C(N)N)C(=O)N1CCCC1C(=O)NCC(N)=O (stereo not given) (Palmitoyl-KGFPSYKLRPG-NH2; configuration not given here) please.
Output line: 44.7 µM
